Study the reported IC50 values for Prothrombin (Homo sapiens, UniProt P00734) given below; they originate from different publications.

// worked examples, IC50 included
Cc1ncc(CO)c(CNc2ccc(-c3ccccc3S(=O)(=O)NC(C)(C)C)cc2)c1O ... > 1000 µM
Nc1ccc(CNC(=O)Cn2c(=O)c(NS(=O)(=O)Cc3ccccc3)cc3ccccc32)cc1 ... > 30 µM
CNC(=O)[C@H](CCCCNC(=N)N)NC(=O)c1csc([C@@H]2CCCN2C(=O)c2cn3cc(Cl)ccc3n2)n1 ... > 10 µM
COc1ccccc1C(=O)n1nc(C2CCN(C(=O)OC(C)(C)C)CC2)nc1NCc1ccccc1 ... ≤ 0.1 µM
O=C(c1ccccc1)n1nc(C2CCOCC2)c(F)c1NCc1ccc(Cl)s1 ... < 0.1 µM
Clc1ccc(CNc2cc(C3CC4CCC(C3)N4)n[nH]2)s1 (stereo not drawn) ... > 100 µM

Could I get IC50 for every one of these entries?
1. C=CCOC(=O)N1CCN(S(C)(=O)=O)CC1c1cc(NCc2ccc(Cl)s2)[nH]n1 (stereo not drawn)
2. COc1ccc(C#N)c(CNC(=O)c2cn(Cc3ccc(Cn4ccccc4=O)cc3)nc2N)c1F
3. O=C(c1ccsc1)n1nc(C2CCOCC2)cc1NCc1ccc(Cl)s1
4. COc1ccc2[nH]c(C)c(CC(=O)Oc3ccc(C(=O)OCCN4CCN(C)CC4)cc3)c2c1

A:
1: > 100 µM; 2: > 40 µM; 3: 0.1 to 1 µM; 4: 40 µM

Could I get IC50 for every one of these entries?
1. Cc1ccc(NS(=O)(=O)Cc2ccccc2)c(=O)n1CC(=O)N[C@@H](CCCNC(=N)N)C(=O)c1nccs1
2. CCC(C)[C@@H](N)C(=O)N[C@@H](Cc1ccccc1C(F)(F)F)C(=O)NCc1ccc(N)nc1 (stereo partly drawn)
3. C[C@@H]1CCC[C@H](C)N1CCCCCN1C(=O)C(c2cc(C(=N)N)ccc2O)Oc2ccccc21 (stereo partly drawn)
4. COc1ccccc1C(=O)n1nc(C2CCN(C(=O)N3CCCC3)CC2)nc1NCc1ccc(Cl)s1
5. CN(C)[C@H](Cc1ccccc1)C(=O)N[C@@H](Cc1ccc(Cl)c(Cl)c1)C(=O)NCc1ccc(N)nc1

A:
1. < 0.04 µM
2. > 10 µM
3. 1.03 µM
4. ≤ 0.1 µM
5. > 10 µM

Could I get IC50 for every one of these entries?
1. CC(C)c1ccc(CCN(C)S(=O)(=O)c2cc(C(=N)N)ccc2O)cc1
2. CNC(=N)Nc1ccc(C(=O)Oc2ccc3cc(C(=N)N)ccc3c2)cc1
3. N=C(N)c1ccc2ccc(Cn3c(=O)ccc4cc(OC5CCNCC5)ccc43)cc2c1
4. CCn1c(CC[C@@H]2CCCN2Cc2c(C(N)=O)sc3ccccc23)cc2ccc(C(=N)N)cc21

A:
1. 26 µM
2. 0.06 µM
3. 122 µM
4. 0.00947 µM

Could I get IC50 for every one of these entries?
1. CS(=O)(=O)N1C2CCC1CC(c1cc(NCc3ccc(Cl)s3)[nH]n1)C2 (stereo not drawn)
2. O=C(c1cccc2c1OCCO2)n1nc(C2CCNCC2)c(F)c1NCc1ccc(Cl)s1

A:
1. > 100 µM
2. < 0.1 µM

###

Study the reported pIC50 values for Prothrombin (Homo sapiens) given below; they originate from different publications.
pIC50: −log10 of the molar value.

// worked examples, pIC50 included
CN(C)C(=O)CN1CCN(CCOC(=O)c2ccc(OC(=O)Cc3cccc4ccccc34)cc2)CC1 ... 5.05
CN(C)C(=O)N1CCC(c2cc(NCc3ccc(Cl)s3)[nH]n2)CC1 ... < 4.00
O=c1[nH]cc(-c2cc(NCc3ccc(Cl)s3)[nH]n2)cc1Br ... < 4.00

# input for lookup
Q: Which pIC50 value is on record for `N=C(N)NCCCNC(=O)c1cc(NS(=O)(=O)Cc2ccccc2)ccc1Sc1ccccc1` ?
A: < 4.00
